Biological target: PTPN2 (Homo sapiens (Human), UniProt P17706)
Sequence (P17706 whole entry): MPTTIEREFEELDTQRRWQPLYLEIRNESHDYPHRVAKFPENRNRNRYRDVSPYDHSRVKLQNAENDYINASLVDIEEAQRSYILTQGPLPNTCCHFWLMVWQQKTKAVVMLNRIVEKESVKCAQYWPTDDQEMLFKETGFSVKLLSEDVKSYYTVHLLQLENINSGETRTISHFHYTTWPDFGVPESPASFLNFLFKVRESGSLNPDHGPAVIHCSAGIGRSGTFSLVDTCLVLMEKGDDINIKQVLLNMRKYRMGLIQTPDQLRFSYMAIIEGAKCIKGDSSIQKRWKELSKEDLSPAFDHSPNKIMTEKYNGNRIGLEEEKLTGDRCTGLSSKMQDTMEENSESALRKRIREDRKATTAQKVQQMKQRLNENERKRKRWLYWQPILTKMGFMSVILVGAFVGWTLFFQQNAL
Assay: PhosphoSens assay (PTPN2 BCHEM)
Format: biochemical
Details: substrate AQT0264 20 μM, PTPN2 150 pM
pIC50: −log10 of the molar value.
observationType: pIC50

Worked examples follow.
[[record]]
smilesdata = "N#Cc1ccnc(NCc2cc(O)c(N3CC(=O)NS3(=O)=O)c(F)c2)c1"
result = 7.40

[[record]]
smilesdata = "O=C1CN(c2c(O)cc(CNc3cc(C4CC4)ccn3)cc2F)S(=O)(=O)N1"
result = 8.22


P. COc1cnc(NCc2cc(O)c(N3CC(=O)NS3(=O)=O)c(F)c2)cc1OC
Q. O=C1CN(c2c(O)cc(CNc3cc(OCc4ccccc4)ccn3)cc2F)S(=O)(=O)N1
Q) Of P and Q , whose reported pIC50 is numerically smaller? Kindly state the label of the option you pick.
A) P

P. O=C1CN(c2c(O)cc(CNc3ccc(-c4ccccc4)cn3)cc2F)S(=O)(=O)N1
Q. O=C1CN(c2c(O)cc(CNc3cc(OC4CC4)ccn3)cc2F)S(=O)(=O)N1
Q) Of P and Q , whose reported pIC50 is numerically smaller? Kindly state the label of the option you pick.
A) P
(P: 7.30, Q: 8.52)

A. COc1cc(NCc2cc(O)c(N3CC(=O)NS3(=O)=O)c(F)c2)ncc1C
B. CC(C)(C)c1ccc(NCc2cc(O)c(N3CC(=O)NS3(=O)=O)c(F)c2)nc1
Q) In the pair A and B , the larger recorded pIC50 belongs to which? Kindly state the label of the option you pick.
A) A
(A: 8.40, B: 7.52)

Origin of measurements: patent US20240180886A1
